# test_system: recombinant human MEK 1 (MAPKK) and recombinant human ERK2 (MAPK)
# test_description: Mitogen Activated Protein Kinase (MAPK) assay, two component coupled MEK 1 / ERK2
# test_conditions: separate entries for the same compound = evaluated more than one time
value_kind: IC50

chemical_smiles	test_system	IC50
COc1cc2ncc(C#N)c(Nc3ccc(Cl)cc3F)c2cc1OCCCN1CCOCC1	recombinant human MEK 1 (MAPKK) and recombinant human ERK2 (MAPK)	6 µM

Req: Reported IC50, molecule COc1cc2c(Nc3ccc(Cl)cc3F)c(C#N)cnc2cc1OCCCCl : ____
Resp: < 1 µM

Req: Reported IC50, molecule CCCCOc1cc2ncc(C#N)c(Nc3cccc(Br)c3)c2cc1OCCCC : ____
Resp: > 100 µM

Req: Reported IC50, molecule N#Cc1cnc2ccc(NC(=O)CCl)cc2c1Nc1cccc(Br)c1 : ____
Resp: 29 µM

----------
Reported IC50 values follow for various compounds
# System: HL60
# test_description: Inhibition of cancer cell growth as measured by cell number, HL60
# Type: cell-based
# test_conditions: Homo sapiens, HL-60; cell number, Sulforhodamine B, 48 hours exposure; Table 7; read-out: IC50 HL60
Expressed in µg/mL, but write only the number.

Completed entries (count: 4):
compound	unit_abbrev	IC50
CC#CC(=O)Nc1ccc2ncc(C#N)c(Nc3ccc(Br)c(Br)c3)c2c1 [Example 22]	µg/mL	0.608
CC(=O)Nc1ccc2ncc(C#N)c(Nc3cccc(Br)c3)c2c1 [Example 16]	µg/mL	0.696
COc1cc2ncc(C#N)c(Nc3cccc(Br)c3)c2cc1OC [Example 31]	µg/mL	0.894
COc1cc2ncc(C#N)c(Sc3ccc(Br)cc3)c2cc1OC [Example 50]	µg/mL	4.72

Okay, next one:
Req: Reported IC50, compound COc1cc2ncc(C#N)c(NC3CCCCC3)c2cc1OC [Example 38] : ____
Resp: 4.27

----------
# Tested on: MCF7
# test_description: Inhibition of cancer cell growth as measured by cell number, MCF7
# Type: cell-based, human
# test_conditions: Homo sapiens, MCF7, 48 h, cell number, Sulforhodamine B, 48 hours exposure; Table 8; read-out: IC50 MCF7
The label label 1 is reserved for IC50 strictly under 6 µg/mL; label 0 covers values equal to or above it.

chemical_smiles	test_system	category
C=CC(=O)Nc1ccc2ncc(C#N)c(Nc3ccc(N(C)C)cc3)c2c1	MCF7	label 1
COCC#CC(=O)Nc1ccc2ncc(C#N)c(Nc3cccc(Br)c3)c2c1	MCF7	label 1
CC#CC(=O)Nc1ccc2ncc(C#N)c(Nc3cccc(N(C)C)c3)c2c1	MCF7	label 1
N#Cc1cnc2ccc(NC(=O)C#CCO)cc2c1Nc1cccc(Br)c1	MCF7	label 0
N#Cc1cnc2ccc(NC(=O)C#CCN3CCOCC3)cc2c1Nc1cccc(Br)c1	MCF7	label 1
C=CC(=O)Nc1ccc2ncc(C#N)c(Nc3cccc(N(C)C)c3)c2c1	MCF7	label 0
CCOc1cc2ncc(C#N)c(Nc3cccc(F)c3)c2cc1OCC	MCF7	label 0
CSc1cccc(Nc2c(C#N)cnc3ccc(N)cc23)c1	MCF7	label 1
CN(C)CC#CC(=O)Nc1ccc2ncc(C#N)c(Nc3cccc(Br)c3)c2c1	MCF7	label 1
CC(C)(C)[Si](C)(C)OCC#CC(=O)Nc1ccc2ncc(C#N)c(Nc3cccc(Br)c3)c2c1	MCF7	label 1

Req: hey, is IC50 for N#Cc1cnc2ccc(NCCCN3CCCC3)cc2c1Nc1cccc(Br)c1 lower than 6 µg/mL or not?
Resp: label 0

----------
# Test system: SKBR3
# test_description: Inhibition of cell growth by incorporation of [3H]-thymidine, SKBR3
# Format: cell-based, human
# test_conditions: [3H]-thymidine incorporation
value_kind: IC50

Req: Could you share what IC50 was measured for CCOC(=O)c1cnc2cc(OC)c(OC)cc2c1O [Example 26] , tested on SKBR3?
Resp: > 50 µM

----------
# test_system: recombinant human MEK 1 (MAPKK) and recombinant human ERK2 (MAPK)
# test_description: Mitogen Activated Protein Kinase (MAPK) assay, two component coupled MEK 1 / ERK2;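 also: MEK 1-activated ERK2 phosphorylates MBP or Myc peptide with 33P-ATP, filter capture and scintillation counting, inhibitor preincubated with ERK2 30 min at 0 °C, inhibition relative to uninhibited control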
# test_conditions: separate entries for the same compound = evaluated more than one time
The label condition met is reserved for IC50 strictly under 50 µM; condition not met covers values equal to or above it.

Here are 5 compounds together with their reported answers.
chemical_smiles	category
C#Cc1cccc(Nc2c(C#N)cnc3ccc([N+](=O)[O-])cc23)c1	condition not met
N#Cc1cnc2ccc([N+](=O)[O-])cc2c1Nc1cccc(I)c1	condition not met
CC#CC(=O)Nc1ccc2ncc(C#N)c(Nc3cccc(C)c3)c2c1	condition not met
C=CC(=O)Nc1ccc2ncc(C#N)c(Nc3cccc(C#N)c3)c2c1	condition met
N#Cc1cnc2ccc(NC(=O)C=CCN3CCOCC3)cc2c1Nc1ccc(F)c(Br)c1	condition met

Req: hey, is IC50 for N#Cc1cnc2ccc([N+](=O)[O-])cc2c1Nc1cccc(F)c1 lower than 50 µM or not?
Resp: condition not met

Req: hey, is IC50 for N#Cc1cnc2ccc(N)cc2c1Nc1cccc(Br)c1 lower than 50 µM or not?
Resp: condition not met

Req: hey, is IC50 for COc1ccc(Nc2c(C#N)cnc3c(OC)cc([N+](=O)[O-])cc23)cc1O lower than 50 µM or not?
Resp: condition not met

----------
pIC50, epidermal growth factor receptor kinase (Homo sapiens): measured values
Remember, pIC50 is on a log scale: it is -log10 of the molar concentration.

compound	test_system	pIC50
COc1cc2ncc(C#N)c(Sc3ccc(Br)cc3)c2cc1OC [Example 50]	epidermal growth factor receptor kinase (Homo sapiens)	5.30

Req: Reported pIC50, compound COc1cc2ncc(C#N)c(Nc3ccc(F)cc3)c2cc1OC [Example 46] : ____
Resp: 5.05

Req: Reported pIC50, compound C=CC(=O)Nc1ccc2ncc(C#N)c(Nc3ccc(Br)c(Br)c3)c2c1 [Example 54] : ____
Resp: 8.15

Req: Reported pIC50, compound CC#CC(=O)Nc1cc2c(Nc3cccc(Br)c3)c(C#N)cnc2cc1OC [Example 8] : ____
Resp: 6.82

----------
IC50, Epithelial Cell Kinase (ECK) (Homo sapiens, UniProt P29317): measured values
Expressed in µM, but write only the number.

Req: Could you share what IC50 was measured for COc1cc2c(Nc3cc(O)c(Cl)cc3F)c(C#N)cnc2c(OC)c1OC , tested on Epithelial Cell Kinase (ECK) (Homo sapiens, UniProt P29317)?
Resp: 24.8

Req: Could you share what IC50 was measured for COc1cc2c(Nc3ccc(C)c(O)c3)c(C#N)cnc2cc1OCCN(C)C , tested on Epithelial Cell Kinase (ECK) (Homo sapiens, UniProt P29317)?
Resp: 51

Req: Could you share what IC50 was measured for CC(C)N(C)CC#CC(=O)Nc1ccc2ncc(C#N)c(Nc3cccc(Br)c3)c2c1 , tested on Epithelial Cell Kinase (ECK) (Homo sapiens, UniProt P29317)?
Resp: 42

Req: Could you share what IC50 was measured for N#Cc1cnc2cc3c(cc2c1Nc1cccc(Br)c1)OCO3 , tested on Epithelial Cell Kinase (ECK) (Homo sapiens, UniProt P29317)?
Resp: 27.2

Req: Could you share what IC50 was measured for N#Cc1cnc2ccc([N+](=O)[O-])cc2c1Nc1cccc(C(F)(F)F)c1 , tested on Epithelial Cell Kinase (ECK) (Homo sapiens, UniProt P29317)?
Resp: 27.9

Req: Could you share what IC50 was measured for COc1ccc2c(Nc3ccc(C)c(O)c3)c(C#N)cnc2c1 , tested on Epithelial Cell Kinase (ECK) (Homo sapiens, UniProt P29317)?
Resp: 0.0033

Req: Could you share what IC50 was measured for COc1cc2c(Nc3ccc(Cl)cc3F)c(C#N)cnc2cc1OCCCN1CCOCC1 , tested on Epithelial Cell Kinase (ECK) (Homo sapiens, UniProt P29317)?
Resp: 0.425

----------
# Test system: NHEK
# test_description: Inhibition of cell growth by incorporation of [3H]-thymidine, NHEK
# Format: cell-based, human
# test_conditions: [3H]-thymidine incorporation, read-out: IC50 NHEK
value_kind: IC50 (nM)
Expressed in nM, but write only the number.

Req: Reported IC50, compound CCOC(=O)c1cnc2cc(OC)c(OC)cc2c1O : ____
Resp: 400

----------
# Test system: MCF7
# test_description: Inhibition of cancer cell growth as measured by cell number, MCF7;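 also: MCF7 was included as a line with little or no EGFR or HER2/neu expression, in contrast to the receptor-overexpressing lines of the panel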
# Type: cell-based, human
# test_conditions: Homo sapiens, MCF7, 48 h, read-out: IC50 MCF7, cell number, Sulforhodamine B, 48 hours exposure; Table 5
Reported IC50 values follow for various molecules

Completed entries (count: 4):
chemical_smiles	test_system	IC50
COc1cc2ncc(C#N)c(Nc3cccc(Br)c3)c2cc1N	MCF7	5.67 µg/mL
CC#CC(=O)Nc1ccc2ncc(C#N)c(Nc3cccc(Br)c3)c2c1	MCF7	> 33 µg/mL
CC#CC(=O)Nc1cc2c(Nc3cccc(Br)c3)c(C#N)cnc2cc1OC	MCF7	53.2 µg/mL
COc1cc2ncc(C#N)c(Nc3cccc(CO)c3)c2cc1OC	MCF7	79.3 µg/mL

Req: Reported IC50, molecule COc1ccc(Nc2c(C#N)cnc3cc(OC)c(OC)cc23)cc1OC : ____
Resp: 5.83 µg/mL
